run_description: soluble fraction after stress (log2 fold change); higher = more stays soluble; pooled small domains, quantitative proteomics;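 note: 20 min heating vs room temperature control held 20 min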
assay_context: stress: 75 degC
The following sequences are listed with their measured soluble fraction (log2) values.
assay_endpoint: soluble fraction (log2)

# sequence_record, value_observed
rows = [
    ("HMEDYYKILGVSKDASIDDIKKSYRKLSLQNHPDRNKSPQASENFAKINSAYEVLSDQRKKRQYDMQQSM", -0.073),
    ("HMESAESRVDLIGMIGEAITDLRPAGTAQFGEERIDVVSESEWITEGSTVKVVSAEGYRHVVRVME", -0.358),
    ("HMDYNYLVFVTNTGPRSIAVEDLEMTVSDGKLVVSSGADGETFDLSTLTKMYFSDAAVVSINDV", -1.1),
    ("HMFVEKDSIINKGNNSYNFVITDNNNKVLVEYNGLLPDLFKEEQGVVIEGRLKSDFIIHAFTVF", -0.0707),
    ("HMNPYQDSILLWKSFDTPLTNEDFMGLSKEELRIARNEIYAAYGRIFTSQDLIDYFNSKPWYQGTTPA", -0.313),
    ("HMVRSLESESVYDRQRAYEIAYQLRTEERPYSFIATQLNKAGLRPQKAARYEWYSVQELLRSA", -1.38),
    ("HMGDAVSRAYFALADDLLKGELTETVSEVLIRTRYELTSAQLQAVLHRIAQEGWAHKKPGYGWEFSAMLT", -2.01),
    ("HMYLLPVTSTELKGNYPNPFNPETTISFDLKDAERVNLSIYNLKGQLVRTLVNSDLPIGRHRLIWDGNDS", -0.622),
    ("HMNGKTIEVPDITEKSIAEAQLILNQKKLRYNVVDSTRFDPAYLPFSVLTQEPEAGDEVKKNRTIYITLNP", -0.183),
    ("HMNKSEFLNELEKRIRVLEKNEIKDILAEYSQHIDMRMGSGLSEAEAIKDFGDMDDLAAEILEAY", -0.277),
    ("HMFEDYNELDEYLETRFIPTYVLLKQRKNANGEIDHFPSIRLQHIMALKLSEAELEHVMNYLKEKNIRVG", -1.68),
    ("HMNLDELGNRIREQRIKQRLKQQDIANALMLSAQAVSKWERGENAPDISVLPDLVKILGVSVDWLLTGP", -0.949),
    ("HMADTPQAYIRQMVQEAGADGIMLSTITDRLRARFKDFKVRDLGYAQMRQYMASTGTYDLEKSGRNFRVHL", -1.06),
    ("HMPKNRTDYVQDVLKSLGRPAHYKEITQIINAMLPKEAQYSAKSIQVVLGSSPLFIRVGTGTYALVE", -1.73),
    ("HMAVPTHVEFPVVGLQRSGITSLEQAIATVPGVSKAVVNVSDNRIFVDYDPTRSKVSDLLEVVRGAGFTP", -0.043),
    ("HMREVGVPNLRGLTAEEAQIVLSNAGLNLRTEPIRRVHETITVGRIAEQDPMPDLTIRSQRSVTTWLSSGP", 0.328),
    ("HMFPELSEEAKVIVDALSKENDQQLNVLIANTGMAVGTMQAKLFELEMQGVVKPLAGSVYHLM", 0.111),
]

---

run_description: soluble fraction after stress (log2 fold change); higher = more stays soluble; pooled small domains, quantitative proteomics
assay_context: stress: 75 degC
# label = t if soluble fraction (log2) >= 0.1 else f

# sequence_record, class
records = [
    ("HMHTNNALWAIADDMRARKDDGEFDTYREGYKWAANNIVKEGIHITAIKLEKAYHKAKSEGKV", "f"),
    ("HMEKYTDDLEIAAEIARLETLMEGNGRVLIRPSGTEPLVRVMIEGNDIEQITKLAEDLAALLNKRF", "f"),
    ("HMRDFTQPQTASIGPRMREALARGTMTVEELREQFRTQEFPHESVRTAFLEELERVAAELGLA", "t"),
    ("HMQALDNNDALEEIIKKVITENPSQVTEFRNGKDSLMNFLVGKVMAASGGKANPKTLPETIEKIIK", "t"),
    ("HMGGKWKLRILLALENSAQDALRYGEIKNIVSGITDMMLSQSLRELTADGLIERRQYQEIPPKVEYRLS", "f"),
    ("HMETMSGTVKWFNTQKGYGFITGDDGAEYFAHQTQIKMDGFRTLDAGDIVEFDVRSEEKGLAAVNIVP", "t"),
    ("HMKFLHLADLHLGKRVNGFSMLEDQAYILRQILTILDDERPDGVLIAGDVYDKPVPPTEAVELLD", "f"),
    ("HMPQIDLYPFEVRIEQDNNAAEYAVRFLDVPNIIGSGASIDEAIVEARGNLKEYLDYLIDTNRDIPLPS", "f"),
    ("HMPKRYAGPDIIAIYGSDVFFRVGSGDGLMVIPVGRSMDNIEVVSVDAPRSVELMWKDGGPFTVPV", "t"),
    ("HMTVPMKILILEDEQRNAMRLIRLLNDIDTTFIIEGPLTNIKEAVDFFQSGKTTDLILADIRL", "f"),
    ("HMARLQEVVVRVPVEDGQTLAAIYREAEVIERADEGTGVLLTVRIPAPLLGRLRRLEGVHVQP", "f"),
    ("HMVLSVRDRMVQILDQVKTGEYKRIEDFFSADEGRTGFVVSFVAILELVKGGLLTITQSKNLAPIYVRLPN", "f"),
    ("HMTSVPGTVVTNANLRGGPGTNYPIVGKAPAGTTVNVVESTADRTWYYLDTGSWIAAFLVKLS", "f"),
    ("HMRVTEVSYDKFLDMLSGGQVTVVELQENERELYFKAADENGAERIYSTGVFPDADLQKRLSESGVTF", "f"),
    ("HMLSVLKNVDVNSLSDDKIKTYWQQIQKSGYTLDEVEVLAEAQGISPLKIAAFKRRVQSLQQSLQT", "t"),
    ("HMREFQVMKQELQEMVHQRLDMSTELSDEAIGDVIDEVIMEKSRNMYISSVTKLTLRQELFNAIR", "f"),
]
